assay: Cytotoxicity againat taxol-resistant human A549T24 cells after 72 hrs by MTT assay
Assay type: functional, cell-based
condition_notes: A549, 72 h
reported_endpoint: IC50
Don't forget the unit after the number, please.

Solved cases (3 shown):
>>> result("CCn1ccc2c3c(=O)cc(-c4ccccc4)[nH]c3ccc21")
"0.03 µM"
>>> result("CCCCn1ccc2c3c(=O)cc(-c4ccccc4)[nH]c3ccc21")
"0.03 µM"
>>> result("O=c1cc(-c2ccccc2)[nH]c2ccc3c(ccn3Cc3ccccc3)c12")
"0.2 µM"

(Q) Consider the molecule CCCn1ccc2c3c(=O)cc(-c4ccccc4)[nH]c3ccc21 and give its measured IC50.
(A) 0.04 µM
